tested on: KRas G12D mutant; assay: Ras GTP Binding Domain Inhibition Assay (Ras Superfamily Assay); settings: 20 μM compound, with SOS
Structures can show the parent of a compound that is named as a salt.
readout-kind: KRas G12D mutant + SOS: % inh.

compound: COc1ccc(Nc2nc(-c3nccn3C)nn3cc(-c4ccn(C(C)C)n4)c(C)c23)cn1 [Compound 71]
readout-kind: KRas G12D mutant + SOS: % inh.
observed: A (A = 1-25% inhibition)
//
compound: Cc1c(-c2ccn(C(C)C)n2)cn2nc(-c3nccn3C)nc(Nc3noc(C4CC4)n3)c12 [Compound 75]
readout-kind: KRas G12D mutant + SOS: % inh.
observed: A (A = 1-25% inhibition)
//
compound: Cc1c(-c2ccn(C(C)C)n2)cn2nc(-c3nccn3C)nc(Nc3ccncc3)c12 [Compound 52]
readout-kind: KRas G12D mutant + SOS: % inh.
observed: A (A = 1-25% inhibition)
//
compound: COC[C@@H]1CC[C@@H]1CNc1nc(-c2nccn2C)nn2cc(-c3ccn(C(C)C)n3)c(-c3ccccc3)c12 (racemic) [Compound 20]
readout-kind: KRas G12D mutant + SOS: % inh.
observed: 0 (0 = 0% inhibition)
//
compound: COc1cccc(-c2cn3nc(-c4nccn4C)nc(O)c3c2C)c1Cl [Compound 15]
readout-kind: KRas G12D mutant + SOS: % inh.
observed: 0 (0 = 0% inhibition)
//
compound: CO[C@H]1CC[C@@H](Nc2nc(-c3nccn3C)nn3cc(-c4ccn(C(C)C)n4)c(-c4ccccc4)c23)C1 (racemic) [Compound 18, hydrochloride]
readout-kind: KRas G12D mutant + SOS: % inh.
observed: 0 (0 = 0% inhibition)
//
compound: CCc1nc(Nc2nc(-c3nccn3C)nn3cc(-c4ccn(C(C)C)n4)c(C)c23)nn1C [Compound 76]
readout-kind: KRas G12D mutant + SOS: % inh.
observed: 0 (0 = 0% inhibition)

###

system: KRas wild type; assay: Ras GTP Binding Domain Inhibition Assay (Ras Superfamily Assay); settings: 20 μM compound, without SOS
readout-kind: KRas wild type: % inh.

compound: COC[C@@H]1CC[C@@H]1CNc1nc(-c2nccn2C)nn2cc(-c3ccn(C(C)C)n3)c(C)c12 (racemic) [Compound 3]
tested-system: KRas wild type
readout-kind: KRas wild type: % inh.
observed: 0 (0 = 0% inhibition)
//
compound: COc1ncncc1Nc1nc(-c2nccn2C)nn2cc(-c3ccn(C(C)C)n3)c(C)c12 [Compound 88]
tested-system: KRas wild type
readout-kind: KRas wild type: % inh.
observed: 0 (0 = 0% inhibition)

###

experiment: Mouse Liver Microsome Metabolic Stability Assay; format: in vitro ADME; settings: pH 7.4, Mouse liver microsomes, 37° C., NADPH, read-out: t½
readout-kind: half-life at 2 µM

chemical-string: Cc1c(-c2ccn(C)n2)cn2nc(-c3nccn3C)nc(Nc3cc(N4CCOCC4)ccn3)c12
observed: < 10 min

chemical-string: Cc1c(-c2ccn(C3CC3)n2)cn2nc(-c3nccn3C)nc(Nc3cc(N(C)C)ccn3)c12
observed: > 10 min

chemical-string: COc1ccnc(Nc2nc(-c3nccn3C)nn3cc(-c4ccn(C)n4)c(C)c23)c1
observed: > 10 min

chemical-string: COc1ccnc(Nc2nc(-c3nccn3C)nn3cc(-c4cccnc4)c(C)c23)c1
observed: > 10 min

chemical-string: Cc1ccc(Nc2nc(-c3nccn3C)nn3cc(-c4ccn(C)n4)c(C)c23)nc1
observed: > 10 min
